measurement target: JNK3α1 (39–422) (UniProt P53779-2 39-422)
assay method text: ITC
dH less than -7 kcal/mol is YES; dH greater than or equal to -7 kcal/mol is NO.

These recorded examples may help you get a feel for the data.
AVVRPGSLDLP [pepSABhu(40–350)] | NO
RPKHPTTLNLF [JIP1 R160H] | NO
RPKRPTTLNLF [pepJIPhu(157–167)] | YES

Query :: Quick check: does RPKQPTTLNLF [JIP1 R160Q] have dH under -7 kcal/mol?
Result :: NO

Just for reference, paper PMC3589125 is where these values come from.
